experiment: yeast display, Sf9 membrane polyspecificity reagent, FACS + sequencing; frameworks hold sequencing errors
reported property: polyreactivity (PSR sort gate)

Consider the following illustrative entries.
query sequence	polyreactivity (PSR sort gate)
QVQLVESGGGLVQAGGSLRLSCAASGIIFTYYAMGWYRQAPGKERELVAAISYRGGSTYADSVKGRFTISRDNAKNTVSLQMNSLKPEDTAVYYCAAQRWYVYGQKYHYGYWGQGTQVTVSS	high polyreactivity
QVQLVESGGGLVQAGGSLRLRCAASGRTFPSYTMGWYRQAPGKERELVAAITWTGGSTYYADSVKGRFTISRDNAKNTVYLQMNSLKPEDTAVYYCADYDYWGQGTQVTVSS	low polyreactivity
QVQLVESGGGLVQAGGSLRLSCAASGRIFYIYAMGWYRQAPGKERELVAAISTGGGGTYYADSVKGRFTISRDNAKNTVYLQMNSLKPEDTAVYYCAVDSKPRYREFDYWGQGTQVTVSS	high polyreactivity
QVQLVESGGGLVQAGGSLRLRCAASGSIIGIYAMGWYRQAPGKERELVAAISWSGGSTYYADSVKGRFTISRDNAKNTVYLQMISLKPVDTAVYYCAARGHYQYYWGQGTQVTVSS	low polyreactivity

Please examine the following record next.
Which polyreactivity (PSR sort gate) reading was recorded for the sequence QVQLVESGGGLVQAGGSLRLSCAASGRIFAYNAMGWYRQAPGKERELVAAITRSGGSTYYADSVKGRFTISRDNAKNTVYLQMNSLKPEDTAVYYCAKRYSYYIDDYWGQGTQVTVSS ?
low polyreactivity

---

assay: yeast display, Sf9 membrane polyspecificity reagent, FACS + sequencing; frameworks hold sequencing errors
reported property: polyreactivity (PSR sort gate)

query sequence	polyreactivity (PSR sort gate)
QVQLVESGGGLVQAGGSLRLSCAASGRTFYIYAMGWYRQAPGKERELVAAISGSGGSTYYADSVKGRFTISRDNAKNTVYFQMNSLKPEDTAVYYCATKLRRSRYVRYDYWGQGTQVTVSS	high polyreactivity
QVQLVESGGGLVQAGGSLRLSCAASVIIYLDNAMVWYRQAPRKEMEMVADITSSGGSTYYADSVKGRFTISRDNAKNTVSLQMNSLKPEDTAVYYCAATRPSYNDAESDYWGQGTQVTVSS	low polyreactivity
QVQLVESGGGLVQAGGSLRLSCAASGRTFIRYTMGWYRPAPGKERELVAAITSTGRTYYADSVKGRFTISRDNAKNTVYLQMNSLKPEDTAVYYCAAKQSWEGYDYWGQGTQVTVSS	low polyreactivity
QVQLVESGGGLVQAGGRLRLSCADSGLIIYYYAMGWYRQAPGKEREFVAAITSSGGSTSYADSVKGRFTISRDNAKNTVYLQMNSLKPEDTAVYYCAARSKSEGGYWGQCTQVTVSS	high polyreactivity

Please examine the following record next.
Which polyreactivity (PSR sort gate) reading was recorded for the sequence QVQLVESAGGLVQAGGSLRLSCAASGAIFGGYAMGWYRQAPGKERELVAAISSSGGSTYFADSVKGRFTISRDNEKNTVYLQMNSLKPEDTAVYYCAAKYQRRYYYWGQGTQVTVSS ?
high polyreactivity

---

assay: yeast display, Sf9 membrane polyspecificity reagent, FACS + sequencing; frameworks hold sequencing errors
reported property: polyreactivity (PSR sort gate)

>>> df
                             query_sequence               reported_property               result
0  QVQLVESGGGLVQAGGSLRLSCAASGSILSYYAMGWYRQAPGKERELVAAISKSGGRTYYADSVKGRFTISRDNAKNTVYLQMNSLKPEDTAVYYCAAPATYKYDYWGQGTQVTVSS  polyreactivity (PSR sort gate)  high polyreactivity
1  QVQLVESGGGLVQAGGSLRLSCAASGYILDVYAMGWYRQAHGKEWELVAVITWRTDSTYYADSVKGRFTISRDNAKNTVYLQMNSLKPEDTAVYYCAKVLRLSKYRYYYWGQGTQVTVSS  polyreactivity (PSR sort gate)  high polyreactivity
